- System: A498 renal
- TEST SUMMARY: NCI tumour cell line growth inhibition, 48 h
PROPERTY LABEL: TGI

Worked examples, 2 compounds total:
// query Give the reported TGI for CCOC(=O)[C@H](O)[C@@H](O)C(=O)NCc1ccc(C(=O)c2ccccc2)cc1 (system: A498 renal).
// result > 100 µM

// query Give the reported TGI for CC1(C)CCc2cc3c(cc2O1)OCC1c2cc4c(cc2OC31)OCO4 (stereo not drawn) (system: A498 renal).
// result > 100 µM

Now for the compound whose TGI we want.
// query Give the reported TGI for O=C(O)CCC(=O)c1ccc2ccc3cccc4ccc1c2c34 (system: A498 renal).
// result > 100 µM

---

- Tested on: HL-60(TB) leukemia
- TEST SUMMARY: NCI tumour cell line growth inhibition, 48 h
molecules and their reported TGI

// query Requested field: TGI. Item: Cc1ccc(/C(=C\C(=O)C(=O)NC23CC4CC(CC(C4)C2)C3)Sc2ccccc2)cc1
// result > 10 µM

// query Requested field: TGI. Item: COc1ccc2nc3cc(Cl)ccc3c(N3CCN(c4ccnc(N5CCOCC5)n4)CC3)c2c1
// result > 100 µM

// query Requested field: TGI. Item: CCCCCCCCCCCCCCCC(=O)OCC1CCCN2CCCCC12 (stereo not given)
// result > 100 µM

// query Requested field: TGI. Item: N#Cc1c(NCCc2ccc(F)cc2)c2ccccc2n2c1nc1ccccc12
// result > 100 µM

Now for the molecule whose TGI we want.
// query Requested field: TGI. Item: O=C1Nc2ccccc2S/C1=C\c1cccc(C(F)(F)F)c1
// result > 100 µM

---

molecules and their reported TGI
- Test system: LOX IMVI melanoma
- TEST SUMMARY: NCI tumour cell line growth inhibition, 48 h

Worked examples, 5 molecules total:
// query Requested field: TGI. Item: Cc1ccc(S(=O)(=O)/N=C(\N)N(C)N=O)cc1
// result > 100 µM

// query Requested field: TGI. Item: O=C1C(c2c(O)[nH]c3ccc(S(=O)(=O)O)cc23)=Nc2ccc(Br)cc21
// result > 100 µM

// query Requested field: TGI. Item: O=P(NC12CC3CC(CC(C3)C1)C2)(N1CC1)N1CC1
// result > 100 µM

// query Requested field: TGI. Item: O=c1cc(N2CCNCC2)oc2c(-c3ccccc3)cccc12
// result > 100 µM

// query Requested field: TGI. Item: CC1(C)CC(=O)C2=C(C1)S/C(=C1/SC3=C(S1)C(=O)CC(C)(C)C3)S2
// result > 251 µM

Now for the molecule whose TGI we want.
// query Requested field: TGI. Item: CSCCC(N)P(C)(=O)O (stereo unspecified)
// result > 100 µM

---

- System: UACC-257 melanoma
- TEST SUMMARY: NCI tumour cell line growth inhibition, 48 h
compounds and their reported TGI

// query Give the reported TGI for CC(Oc1ccc(OCC2CCCCC2)cc1)C(N)=O (stereo unspecified) (system: UACC-257 melanoma).
// result > 100 µM

// query Give the reported TGI for O=[N+]([O-])c1ccc2c(N3CCC(CCCC4CCN(c5ncnc6cc([N+](=O)[O-])ccc56)CC4)CC3)ncnc2c1 (system: UACC-257 melanoma).
// result > 100 µM

// query Give the reported TGI for O=C1/C(=C/c2ccc(Cl)cc2)N=C(c2ccccc2)N1c1nc2ccccc2s1 (system: UACC-257 melanoma).
// result > 100 µM

// query Give the reported TGI for O=C(O)[C@@H]1CCC(=O)N1C(c1ccc2c(c1)OCO2)c1ccc2c(c1)OCO2 (system: UACC-257 melanoma).
// result > 100 µM

// query Give the reported TGI for CSCCC(N)P(C)(=O)O (stereo unspecified) (system: UACC-257 melanoma).
// result > 100 µM

// query Give the reported TGI for CCOC(=O)CC1(O)CCCCC1(Sc1ccc(C)cc1)Sc1ccc(C)cc1 (stereo unspecified) (system: UACC-257 melanoma).
// result > 100 µM

---

- Test system: NCI-H23 lung
- TEST SUMMARY: NCI tumour cell line growth inhibition, 48 h
PROPERTY LABEL: TGI

Worked examples, 2 compounds total:
// query Requested field: TGI. Item: CSCCC(N)P(C)(=O)O (stereo not drawn)
// result > 100 µM

// query Requested field: TGI. Item: C=CCC(CC=O)(C(=O)OCC)C(=O)OCC
// result > 100 µM

Others:
// query Requested field: TGI. Item: CN[C@@H](C)[C@@H](N)c1ccccc1
// result > 100 µM

---

- System: 786-0 renal
- TEST SUMMARY: NCI tumour cell line growth inhibition, 48 h
molecules and their reported TGI
Your answer is read as µM, so omit the unit and give the number.

// query Requested field: TGI. Item: CCOC(=O)c1c2c(n(Cc3ccccc3)c1C)-c1ccccc1C(=O)C2=O
// result 19.3

Now for the molecule whose TGI we want.
// query Requested field: TGI. Item: CC(=O)OC(C)c1cc2c(s1)C(=O)c1scc(C(C)OC(C)=O)c1C2=O (centres undefined)
// result 0.461

---

molecules and their reported TGI
- Tested on: SK-OV-3 ovarian
- TEST SUMMARY: NCI tumour cell line growth inhibition, 48 h

// query Requested field: TGI. Item: O=C1C(C(c2ccccc2)N2CCOCC2)=C(O)C(c2ccccc2)N1c1ccccc1 (stereo not drawn)
// result > 10 µM

// query Requested field: TGI. Item: Cc1ccc(S(=O)(=O)/N=C(\N)N(C)N=O)cc1
// result > 100 µM

Now for the molecule whose TGI we want.
// query Requested field: TGI. Item: N/C(=N\N=C\c1c[nH]c2cc(C(F)(F)F)ccc2c1=O)NO
// result > 10 µM

---

- Test system: HOP-92 NSCLC
- TEST SUMMARY: NCI tumour cell line growth inhibition, 48 h
compounds and their reported TGI

Worked examples, 6 compounds total:
// query Requested field: TGI. Item: CCN1C(=O)NC(=O)C(C)(N2C(=O)c3c(F)c(F)c(F)c(F)c3C2=O)C1=O (stereo unspecified)
// result 4.12 µM

// query Requested field: TGI. Item: O1C2C1C1OC1C1OC1C1OC21 (stereo unspecified)
// result > 100 µM

// query Requested field: TGI. Item: O=C1Nc2ccccc2S/C1=C\c1cccc(C(F)(F)F)c1
// result > 100 µM

// query Requested field: TGI. Item: O=C(Nc1ccc(CN2CCOCC2)cc1)c1[nH]ncc1Nc1ncnc2sccc12
// result > 100 µM

// query Requested field: TGI. Item: CC1CCC(O)(C(C)(C(=O)O)c2ccccc2)CC1 (stereo unspecified)
// result > 100 µM

// query Requested field: TGI. Item: O=[N+]([O-])c1ccc2c(N3CCC(CCCC4CCN(c5ncnc6cc([N+](=O)[O-])ccc56)CC4)CC3)ncnc2c1
// result > 76 µM

Others:
// query Requested field: TGI. Item: NNC(=S)N/N=C(/C(=O)Nc1cc(Cl)ccc1Cl)C1C(=O)Nc2ccccc2S1=O (stereo unspecified)
// result > 100 µM

// query Requested field: TGI. Item: CCCCCC(=O)Nc1nc[nH]c1C(N)=O
// result > 100 µM

// query Requested field: TGI. Item: C=C(C)C1CC2(C)C(C)CC(OC(=O)/C(C)=C\C)CC2C(OC(=O)/C(C)=C\C)C1O (stereo unspecified)
// result > 100 µM

// query Requested field: TGI. Item: COC(=O)Nc1nc2ccc(S(=O)(=O)n3nnc4ccccc43)cc2[nH]1
// result 35.8 µM

// query Requested field: TGI. Item: Cc1ccc(S(=O)(=O)/N=C(\N)N(C)N=O)cc1
// result > 100 µM

// query Requested field: TGI. Item: Cc1nc2ccccc2c(=O)n1NC(=O)c1ccc([N+](=O)[O-])cc1
// result > 100 µM

// query Requested field: TGI. Item: CN1CCN(Cc2ccc(NC(=O)c3cncc(C#Cc4cncc5ncccc45)c3)cc2C(F)(F)F)CC1
// result 4.92 µM

// query Requested field: TGI. Item: COCc1cc2c(cc1/C(=C/[N+](=O)[O-])CS(=O)(=O)c1ccccc1)OCO2
// result > 100 µM

// query Requested field: TGI. Item: Nc1ccc(N=Nc2ccc(-c3ccc(O)cc3)cc2)c2ccc(S(=O)(=O)O)cc12
// result > 100 µM

// query Requested field: TGI. Item: CCn1c(-c2ccc(F)cc2)nc2c1C(=O)c1ccccc1C2=O
// result > 100 µM

// query Requested field: TGI. Item: Nc1c(-c2nc3ccccc3o2)sc(=S)n1-c1ccc(Cl)cc1
// result 63.3 µM

// query Requested field: TGI. Item: COc1ccc(C(=O)C(C(=O)C(=O)Nc2ccc(Cl)c(Cl)c2)c2ccc(OC)cc2)cc1 (stereo unspecified)
// result > 100 µM
